assay: Study 1: single-dose pharmacokinetics in mild or moderate hepatic impairment and matched healthy controls; type: in vivo, human; details: both sexes, human, plasma, po, 20 mg, Mild Impairment n = 8; vilazodone 20 mg single oral dose; read-out: Tmax, Median
quantity: Tmax (h)

* Cl.N#Cc1ccc2[nH]cc(CCCCN3CCN(c4ccc5oc(C(N)=O)cc5c4)CC3)c2c1 [Vilazodone] | 4.5

----------
test: Study 1: single-dose pharmacokinetics in mild or moderate hepatic impairment and matched healthy controls; format: in vivo, human; details: both sexes, human, plasma, po, 20 mg, Mild Impairment n = 8; vilazodone 20 mg single oral dose
quantity: half-life (h)

* Cl.N#Cc1ccc2[nH]cc(CCCCN3CCN(c4ccc5oc(C(N)=O)cc5c4)CC3)c2c1 [Vilazodone] | 30.6

----------
This listing pairs compounds with measured Cmax.
Experiment: Study 2: single-dose pharmacokinetics in severe hepatic impairment and matched healthy controls
Settings: both, human, plasma, po, 20 mg, Cmax, Control matched to Severe Impairment n = 8; vilazodone 20 mg single oral dose
Protocol: The pharmacokinetics, tolerability, and safety of vilazodone were investigated in two separate trials involving participants with hepatic impairment, compared with healthy controls. An Open-label, parallel-group, single-dose pharmacokinetic studies, a single, oral dose of vilazodone (20 mg with increased hardness) was administered to participants with mild, moderate, or severe hepatic impairment or individually matched controls. […] Plasma samples were analyzed using validated LC/MS/MS methods. […]
quantity: Cmax (ng/mL)

* N#Cc1ccc2[nH]cc(CCCC(=O)O)c2c1 | 1.95
* Cl.N#Cc1ccc2[nH]cc(CCCCN3CCN(c4ccc5oc(C(N)=O)cc5c4)CC3)c2c1 | 35

----------
assay: Study 1: single-dose pharmacokinetics in mild or moderate hepatic impairment and matched healthy controls; assay type: in vivo, human; settings: both sexes, human, plasma, po, 20 mg, Moderate Impairment n = 8; vilazodone 20 mg single oral dose; read-out: Tmax (mean)
quantity: Tmax (h)

• Cl.N#Cc1ccc2[nH]cc(CCCCN3CCN(c4ccc5oc(C(N)=O)cc5c4)CC3)c2c1 [Vilazodone] = 4.1

----------
experiment: Study 1: single-dose pharmacokinetics in mild or moderate hepatic impairment and matched healthy controls; format: in vivo, human; conditions: both sexes, human, plasma, po, 20 mg, Moderate Impairment n = 8; vilazodone 20 mg single oral dose
quantity: Cmax (ng/mL)

- Cl.N#Cc1ccc2[nH]cc(CCCCN3CCN(c4ccc5oc(C(N)=O)cc5c4)CC3)c2c1 [Vilazodone]: 34.2

----------
assay: Study 1: single-dose pharmacokinetics in mild or moderate hepatic impairment and matched healthy controls; format: in vivo, human; conditions: both sexes, human, plasma, po, 20 mg, Control matched to Mild Impairment n = 8; vilazodone 20 mg single oral dose; read-out: Tmax, Median
quantity: Tmax (h)

- Cl.N#Cc1ccc2[nH]cc(CCCCN3CCN(c4ccc5oc(C(N)=O)cc5c4)CC3)c2c1: 5

----------
This listing pairs compounds with measured Tmax.
test: Study 2: single-dose pharmacokinetics in severe hepatic impairment and matched healthy controls; conditions: both, human, plasma, po, 20 mg, Tmax, Median, Severe Impairment n = 4 (who did not vomit); vilazodone 20 mg single oral dose
quantity: Tmax (h)

* Cl.N#Cc1ccc2[nH]cc(CCCCN3CCN(c4ccc5oc(C(N)=O)cc5c4)CC3)c2c1 [Vilazodone] | 4
* N#Cc1ccc2[nH]cc(CCCC(=O)O)c2c1 [M17] | 4

----------
assay: Study 1: single-dose pharmacokinetics in mild or moderate hepatic impairment and matched healthy controls; type: in vivo, human; conditions: both sexes, human, plasma, po, 20 mg, Control matched to Moderate Impairment n = 8; vilazodone 20 mg single oral dose
quantity: AUC(0-t) (ng·h/mL)

• Cl.N#Cc1ccc2[nH]cc(CCCCN3CCN(c4ccc5oc(C(N)=O)cc5c4)CC3)c2c1 [Vilazodone] = 768

----------
test: Study 1: single-dose pharmacokinetics in mild or moderate hepatic impairment and matched healthy controls; type: in vivo, human; conditions: both sexes, human, plasma, po, 20 mg, Control matched to Mild Impairment n = 8; vilazodone 20 mg single oral dose
quantity: Cmax (ng/mL)

• Cl.N#Cc1ccc2[nH]cc(CCCCN3CCN(c4ccc5oc(C(N)=O)cc5c4)CC3)c2c1 [Vilazodone] = 43.1

----------
assay: clinical; design: species or system human; conditions: both sexes, human, in vivo, Cavg, ss, Mean (SD)
quantity: concentration at 42 day (ng/mL)

- NC(=O)N1c2ccccc2C=Cc2ccccc21 [Carbamazepine, carbamazepine]: 5500

----------
assay: Study 1: single-dose pharmacokinetics in mild or moderate hepatic impairment and matched healthy controls; type: in vivo, human; conditions: both sexes, human, plasma, po, 20 mg, Mild Impairment n = 8; vilazodone 20 mg single oral dose
quantity: AUC(0-t) (ng·h/mL)

* Cl.N#Cc1ccc2[nH]cc(CCCCN3CCN(c4ccc5oc(C(N)=O)cc5c4)CC3)c2c1 [Vilazodone] | 984

----------
experiment: Study 1: single-dose pharmacokinetics in mild or moderate hepatic impairment and matched healthy controls; assay type: in vivo, human; conditions: both sexes, human, plasma, po, 20 mg, Control matched to Mild Impairment n = 8; vilazodone 20 mg single oral dose
quantity: half-life

* Cl.N#Cc1ccc2[nH]cc(CCCCN3CCN(c4ccc5oc(C(N)=O)cc5c4)CC3)c2c1 | 25.9 h

----------
experiment: Study 1: single-dose pharmacokinetics in mild or moderate hepatic impairment and matched healthy controls; assay type: in vivo, human; details: both sexes, human, plasma, po, 20 mg, Control matched to Moderate Impairment n = 8; vilazodone 20 mg single oral dose
quantity: AUC(0-inf) (ng·h/mL)

- Cl.N#Cc1ccc2[nH]cc(CCCCN3CCN(c4ccc5oc(C(N)=O)cc5c4)CC3)c2c1 [Vilazodone]: 809

----------
assay: clinical; set-up: species or system human; settings: both sexes, human, in vivo, Mean trough plasma concentration
quantity: concentration at 8 day (ng/mL)

* Cl.N#Cc1ccc2[nH]cc(CCCCN3CCN(c4ccc5oc(C(N)=O)cc5c4)CC3)c2c1 [Vilazodone, hydrochloride] | 45.1

----------
assay: Study 2: single-dose pharmacokinetics in severe hepatic impairment and matched healthy controls; details: both, human, plasma, po, 20 mg, AUC0-∞, Severe Impairment n = 4 (who did not vomit); vilazodone 20 mg single oral dose
quantity: AUC(0-inf)

• N#Cc1ccc2[nH]cc(CCCC(=O)O)c2c1 [M17] = 29.9 ng·h/mL
• Cl.N#Cc1ccc2[nH]cc(CCCCN3CCN(c4ccc5oc(C(N)=O)cc5c4)CC3)c2c1 [Vilazodone] = 670 ng·h/mL

----------
experiment: Study 2: single-dose pharmacokinetics in severe hepatic impairment and matched healthy controls; conditions: both, human, plasma, po, 20 mg, Tmax (mean), Severe Impairment n = 4 (who did not vomit); vilazodone 20 mg single oral dose
This listing pairs compounds with measured Tmax.
quantity: Tmax (h)

* N#Cc1ccc2[nH]cc(CCCC(=O)O)c2c1 [M17] | 4.25
* Cl.N#Cc1ccc2[nH]cc(CCCCN3CCN(c4ccc5oc(C(N)=O)cc5c4)CC3)c2c1 [Vilazodone] | 4.8

----------
assay: Study 1: single-dose pharmacokinetics in mild or moderate hepatic impairment and matched healthy controls; assay type: in vivo, human; conditions: both sexes, human, plasma, po, 20 mg, Control matched to Moderate Impairment n = 8; vilazodone 20 mg single oral dose; read-out: Tmax (mean)
quantity: Tmax

* Cl.N#Cc1ccc2[nH]cc(CCCCN3CCN(c4ccc5oc(C(N)=O)cc5c4)CC3)c2c1 [Vilazodone] | 4.9 h

----------
assay: Study 2: single-dose pharmacokinetics in severe hepatic impairment and matched healthy controls; conditions: both, human, plasma, po, 20 mg, t1/2, Control matched to Severe Impairment n = 8; vilazodone 20 mg single oral dose
quantity: half-life (h)

* Cl.N#Cc1ccc2[nH]cc(CCCCN3CCN(c4ccc5oc(C(N)=O)cc5c4)CC3)c2c1 | 30.1
* N#Cc1ccc2[nH]cc(CCCC(=O)O)c2c1 | 17.4

----------
assay: Study 1: single-dose pharmacokinetics in mild or moderate hepatic impairment and matched healthy controls; assay type: in vivo, human; conditions: both sexes, human, plasma, po, 20 mg, Control matched to Moderate Impairment n = 8; vilazodone 20 mg single oral dose
quantity: Cmax (ng/mL)

* Cl.N#Cc1ccc2[nH]cc(CCCCN3CCN(c4ccc5oc(C(N)=O)cc5c4)CC3)c2c1 | 35.8

----------
assay: Study 2: single-dose pharmacokinetics in severe hepatic impairment and matched healthy controls; conditions: both, human, plasma, po, 20 mg, AUC0-∞, Control matched to Severe Impairment n = 8; vilazodone 20 mg single oral dose
quantity: AUC(0-inf) (ng·h/mL)

• Cl.N#Cc1ccc2[nH]cc(CCCCN3CCN(c4ccc5oc(C(N)=O)cc5c4)CC3)c2c1 = 731
• N#Cc1ccc2[nH]cc(CCCC(=O)O)c2c1 = 51.4

----------
Assay: Study 2: single-dose pharmacokinetics in severe hepatic impairment and matched healthy controls
Conditions: both, human, plasma, po, 20 mg, Tmax (mean), Control matched to Severe Impairment n = 8; vilazodone 20 mg single oral dose
Description: The pharmacokinetics, tolerability, and safety of vilazodone were investigated in two separate trials involving participants with hepatic impairment, compared with healthy controls. An Open-label, parallel-group, single-dose pharmacokinetic studies, a single, oral dose of vilazodone (20 mg with increased hardness) was administered to participants with mild, moderate, or severe hepatic impairment or individually matched controls. […] Plasma samples were analyzed using validated LC/MS/MS methods. […]
This listing pairs compounds with measured Tmax.
quantity: Tmax (h)

• Cl.N#Cc1ccc2[nH]cc(CCCCN3CCN(c4ccc5oc(C(N)=O)cc5c4)CC3)c2c1 [Vilazodone] = 4.2
• N#Cc1ccc2[nH]cc(CCCC(=O)O)c2c1 [M17] = 6
